Listed here: items and their measured In vitro activity compared to native-type peptide (%), vs GIP.
Target: T1, human GIP receptor (human, UniProt P48546 22-466)
T1 sequence (looked up): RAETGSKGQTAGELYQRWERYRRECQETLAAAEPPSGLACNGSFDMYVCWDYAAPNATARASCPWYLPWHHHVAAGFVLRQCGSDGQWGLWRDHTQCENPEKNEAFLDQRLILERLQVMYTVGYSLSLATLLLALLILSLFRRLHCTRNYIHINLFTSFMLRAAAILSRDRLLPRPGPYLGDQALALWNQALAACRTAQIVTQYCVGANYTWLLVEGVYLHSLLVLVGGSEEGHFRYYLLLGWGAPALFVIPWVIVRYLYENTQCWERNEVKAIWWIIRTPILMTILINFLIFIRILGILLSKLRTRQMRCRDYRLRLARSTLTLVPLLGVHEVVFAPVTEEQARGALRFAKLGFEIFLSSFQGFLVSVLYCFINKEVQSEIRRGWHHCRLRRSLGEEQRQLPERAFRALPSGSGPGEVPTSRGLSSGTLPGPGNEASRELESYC
Assay: cell-based or functional assay
Bridge positions count the residues as written; N and C are the ends. Square brackets hold non-standard residues; d marks the D form. Ends that are not written are not given here. * marks the point of attachment. Acetyl(2-(4-imidazolyl)) = O=C(Cc1c[nH]cn1)*; Aib = CC(C)(N)C(=O)O

INSERT INTO assay_data (binder, assay_value) VALUES
  ('H[Aib]QGTFTSDYSKYLDECRQKEFVQWLLNGGPSSGAPPPSG (bridge 16-20) [triple agonist of SEQ ID NO: 37]', '2.2%'),
  ('H[Aib]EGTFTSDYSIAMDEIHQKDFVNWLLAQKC (bridge 16-20) [triple agonist of SEQ ID NO: 79]', '1.4%'),
  ('Y[Aib]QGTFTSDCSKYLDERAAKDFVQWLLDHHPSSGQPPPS (bridge 16-20) [triple agonist of SEQ ID NO: 72]', '1.6%'),
  ('[Acetyl(2-(4-imidazolyl))]GQGTFTSDLSKQMDEERAREFIEWLLAQKPSSGAPPPSHG [triple agonist of SEQ ID NO: 17]', '< 0.1%');

The record that follows has no In vitro activity compared to native-type peptide (%), vs GIP shown yet.
For Y[Aib]QGTFTSDYSKYLDERACKDFVQWLLDHHPSSGQPPPS (bridge 16-20) [triple agonist of SEQ ID NO: 71] , what is its reported In vitro activity compared to native-type peptide (%), vs GIP?
94.7%
